tested on: Candida albicans; test: Antifungal activity Candida albicans NCIM 3471 at 100 ug/disc by agar-well diffusion assay; type: functional; conditions: read-out: DIZ

- SMILES REPR: "Clc1ccc(/C(Cn2cncn2)=N\\Nc2nc(-c3ccc(Cl)cc3)cs2)cc1"
  zone of inhibition at 100 µg/disc (mm): 20.4
- SMILES REPR: "Fc1ccc(/C(Cn2cncn2)=N\\Nc2nc(-c3ccc(Br)cc3)cs2)cc1"
  zone of inhibition at 100 µg/disc (mm): 14.8
- SMILES REPR: "Fc1ccc(-c2csc(N/N=C(/Cn3cncn3)c3ccc(Cl)cc3)n2)cc1"
  zone of inhibition at 100 µg/disc (mm): 19.1
- SMILES REPR: "Fc1ccc(-c2csc(N/N=C(/Cn3cncn3)c3cc(C(F)(F)F)cc(C(F)(F)F)c3)n2)cc1"
  zone of inhibition at 100 µg/disc (mm): 19.4
- SMILES REPR: "FC(F)(F)c1cc(/C(Cn2cncn2)=N\\Nc2nc(-c3ccc(Cl)cc3)cs2)cc(C(F)(F)F)c1"
  zone of inhibition at 100 µg/disc (mm): 17.6
- SMILES REPR: "Clc1ccc(-c2csc(N/N=C(/Cn3cncn3)c3ccc(Br)cc3)n2)cc1"
  zone of inhibition at 100 µg/disc (mm): 16.2
- SMILES REPR: "Fc1ccc(-c2csc(N/N=C(/Cn3cncn3)c3ccc(Br)cc3)n2)cc1"
  zone of inhibition at 100 µg/disc (mm): 14.4
- SMILES REPR: "Fc1ccc(/C(Cn2cncn2)=N\\Nc2nc(-c3ccc(Cl)cc3)cs2)cc1"
  zone of inhibition at 100 µg/disc (mm): 18.8
- SMILES REPR: "FC(F)(F)c1cc(-c2csc(N/N=C(/Cn3cncn3)c3ccc(Br)cc3)n2)cc(C(F)(F)F)c1"
  zone of inhibition at 100 µg/disc (mm): 13.9
- SMILES REPR: "O=[N+]([O-])c1ccc(/C(Cn2cncn2)=N\\Nc2nc(-c3ccc(F)cc3)cs2)cc1"
  zone of inhibition at 100 µg/disc (mm): 11.2
- SMILES REPR: "C[C@@H](c1nc(-c2ccc(C#N)cc2)cs1)[C@](O)(Cn1cncn1)c1ccc(F)cc1F"
  zone of inhibition at 100 µg/disc (mm): 28.6
- SMILES REPR: "Brc1ccc(/C(Cn2cncn2)=N\\Nc2nc(-c3ccc(Br)cc3)cs2)cc1"
  zone of inhibition at 100 µg/disc (mm): 13.9
- SMILES REPR: "FC(F)(F)c1cc(/C(Cn2cncn2)=N\\Nc2nc(-c3cc(C(F)(F)F)cc(C(F)(F)F)c3)cs2)cc(C(F)(F)F)c1"
  zone of inhibition at 100 µg/disc (mm): 11.7
- SMILES REPR: "Fc1ccc(/C(Cn2cncn2)=N\\Nc2nc(-c3ccc(F)cc3)cs2)cc1"
  zone of inhibition at 100 µg/disc (mm): 16.3
- SMILES REPR: "O=[N+]([O-])c1ccc(-c2csc(N/N=C(/Cn3cncn3)c3ccc(Cl)cc3)n2)cc1"
  zone of inhibition at 100 µg/disc (mm): 11.7
- SMILES REPR: "FC(F)(F)c1cc(-c2csc(N/N=C(/Cn3cncn3)c3ccc(Cl)cc3)n2)cc(C(F)(F)F)c1"
  zone of inhibition at 100 µg/disc (mm): 20.7

----------
tested on: Candida albicans; assay: Antifungal activity Candida albicans NCIM 3471 after 24 to 72 hrs by NCCLS method; type: functional
Calls of active or inactive are those of the source. The rule behind the calls is not given here.
OBSERVATION TYPE: MIC

- SMILES REPR: "FC(F)(F)c1cc(/C(Cn2cncn2)=N\\Nc2nc(-c3ccc(Br)cc3)cs2)cc(C(F)(F)F)c1"
  DATA VALUE: "inactive"
- SMILES REPR: "Fc1ccc(/C(Cn2cncn2)=N\\Nc2nc(-c3cc(C(F)(F)F)cc(C(F)(F)F)c3)cs2)cc1"
  DATA VALUE: "inactive"
- SMILES REPR: "Fc1ccc(/C(Cn2cncn2)=N\\Nc2nc(-c3ccc(Cl)cc3)cs2)cc1"
  DATA VALUE: "32 µg/mL"
- SMILES REPR: "FC(F)(F)c1cc(/C(Cn2cncn2)=N\\Nc2nc(-c3ccc(Cl)cc3)cs2)cc(C(F)(F)F)c1"
  DATA VALUE: "32 µg/mL"
- SMILES REPR: "Fc1ccc(-c2csc(N/N=C(/Cn3cncn3)c3cc(C(F)(F)F)cc(C(F)(F)F)c3)n2)cc1"
  DATA VALUE: "> 64 µg/mL"
- SMILES REPR: "O=[N+]([O-])c1ccc(-c2csc(N/N=C(/Cn3cncn3)c3ccc(Cl)cc3)n2)cc1"
  DATA VALUE: "> 64 µg/mL"
- SMILES REPR: "Clc1ccc(/C(Cn2cncn2)=N\\Nc2nc(-c3ccc(Cl)cc3)cs2)cc1"
  DATA VALUE: "32 µg/mL"
- SMILES REPR: "O=[N+]([O-])c1ccc(-c2csc(N/N=C(/Cn3cncn3)c3ccc(F)cc3)n2)cc1"
  DATA VALUE: "inactive"
- SMILES REPR: "Fc1ccc(-c2csc(N/N=C(/Cn3cncn3)c3ccc(Cl)cc3)n2)cc1"
  DATA VALUE: "32 µg/mL"

----------
Measured MIC, listed per entry for reference.
system: Pseudomonas aeruginosa; assay: Antibacterial activity Pseudomonas aeruginosa NCIM 2036 after 24 hrs by NCCLS method; format: functional; conditions: NCIM 2036, 24 h
OBSERVATION TYPE: MIC (µg/mL)

- SMILES REPR: "O=[N+]([O-])c1ccc(/C(Cn2cncn2)=N\\Nc2nc(-c3cc(C(F)(F)F)cc(C(F)(F)F)c3)cs2)cc1"
  DATA VALUE: 64
- SMILES REPR: "Fc1ccc(/C(Cn2cncn2)=N\\Nc2nc(-c3cc(C(F)(F)F)cc(C(F)(F)F)c3)cs2)cc1"
  DATA VALUE: 32
- SMILES REPR: "Fc1ccc(-c2csc(N/N=C(/Cn3cncn3)c3cc(C(F)(F)F)cc(C(F)(F)F)c3)n2)cc1"
  DATA VALUE: 16
- SMILES REPR: "Clc1ccc(/C(Cn2cncn2)=N\\Nc2nc(-c3ccc(Br)cc3)cs2)cc1"
  DATA VALUE: 32
- SMILES REPR: "FC(F)(F)c1cc(/C(Cn2cncn2)=N\\Nc2nc(-c3ccc(Cl)cc3)cs2)cc(C(F)(F)F)c1"
  DATA VALUE: 32
- SMILES REPR: "Fc1ccc(/C(Cn2cncn2)=N\\Nc2nc(-c3ccc(Br)cc3)cs2)cc1"
  DATA VALUE: 32
- SMILES REPR: "Clc1ccc(-c2csc(N/N=C(/Cn3cncn3)c3ccc(Br)cc3)n2)cc1"
  DATA VALUE: 32
- SMILES REPR: "Fc1ccc(/C(Cn2cncn2)=N\\Nc2nc(-c3ccc(F)cc3)cs2)cc1"
  DATA VALUE: 32
- SMILES REPR: "FC(F)(F)c1cc(-c2csc(N/N=C(/Cn3cncn3)c3ccc(Cl)cc3)n2)cc(C(F)(F)F)c1"
  DATA VALUE: 32

----------
tested on: Candida albicans; assay: Antifungal activity Candida albicans NCIM 3471 after 24 to 72 hrs by NCCLS method; type: functional
The source made the active and inactive calls. The rule behind the calls is not given here.
OBSERVATION TYPE: MIC

- SMILES REPR: "O=[N+]([O-])c1ccc(/C(Cn2cncn2)=N\\Nc2nc(-c3ccc(F)cc3)cs2)cc1"
  DATA VALUE: "> 64 µg/mL"
- SMILES REPR: "O=[N+]([O-])c1ccc(/C(Cn2cncn2)=N\\Nc2nc(-c3ccc([N+](=O)[O-])cc3)cs2)cc1"
  DATA VALUE: "inactive"
- SMILES REPR: "FC(F)(F)c1cc(-c2csc(N/N=C(/Cn3cncn3)c3ccc(Cl)cc3)n2)cc(C(F)(F)F)c1"
  DATA VALUE: "32 µg/mL"
- SMILES REPR: "Fc1ccc(/C(Cn2cncn2)=N\\Nc2nc(-c3ccc(Br)cc3)cs2)cc1"
  DATA VALUE: "64 µg/mL"
- SMILES REPR: "O=[N+]([O-])c1ccc(/C(Cn2cncn2)=N\\Nc2nc(-c3ccc(Cl)cc3)cs2)cc1"
  DATA VALUE: "inactive"

----------
test system: Bacillus subtilis; assay: Antibacterial activity Bacillus subtilis NCIM 2250 at 100 ug/disc by agar-well diffusion assay; assay type: functional; details: read-out: DIZ
OBSERVATION TYPE: zone of inhibition at 100 µg/disc (mm)

- SMILES REPR: "O=[N+]([O-])c1ccc(/C(Cn2cncn2)=N\\Nc2nc(-c3ccc(Cl)cc3)cs2)cc1"
  STUDY TARGET: "Bacillus subtilis"
  DATA VALUE: 15.8
- SMILES REPR: "Fc1ccc(/C(Cn2cncn2)=N\\Nc2nc(-c3ccc(F)cc3)cs2)cc1"
  STUDY TARGET: "Bacillus subtilis"
  DATA VALUE: 24.4
- SMILES REPR: "Clc1ccc(-c2csc(N/N=C(/Cn3cncn3)c3ccc(Br)cc3)n2)cc1"
  STUDY TARGET: "Bacillus subtilis"
  DATA VALUE: 17.3
- SMILES REPR: "FC(F)(F)c1cc(/C(Cn2cncn2)=N\\Nc2nc(-c3ccc(Br)cc3)cs2)cc(C(F)(F)F)c1"
  STUDY TARGET: "Bacillus subtilis"
  DATA VALUE: 10.1
- SMILES REPR: "O=[N+]([O-])c1ccc(-c2csc(N/N=C(/Cn3cncn3)c3ccc(Cl)cc3)n2)cc1"
  STUDY TARGET: "Bacillus subtilis"
  DATA VALUE: 12.2
- SMILES REPR: "Fc1ccc(/C(Cn2cncn2)=N\\Nc2nc(-c3ccc(Cl)cc3)cs2)cc1"
  STUDY TARGET: "Bacillus subtilis"
  DATA VALUE: 20.5

Measured values drawn from ChEMBL document CHEMBL2040750 for this set.
